- testTarget: nuclear BRD4-NUT foci in HCC2494 NUT midline carcinoma cells (Homo sapiens (Human), UniProt O60885+Q86Y26)
- test: Nut-foci formation assay
- reportedConditions: 24 hours, read-out: HCS Brd4-NUT IC50
readoutKind: log10 IC50 (log10 of the value in nM)
Transform log10 | Measure IC50 | Unit nM

Cc1cc(N2C(=O)c3nn(C4COC4)c(C)c3C2c2ccc(Cl)cc2)cn(C)c1=O (centres unmarked) [Example 134]
1.96
CCc1nn(CCOC)c2c1C(c1ccc(Cl)cc1)N(c1cc(C)c(=O)n(C)c1)C2=O (centres unmarked) [Example 86]
1.58
CC(=O)N1CC(n2nc(C)c3c2C(=O)N(c2cc(C)c(=O)n(C)c2)C3c2ccc(Cl)cc2)C1 (centres unmarked) [Example 153]
2.18
CCc1nn(C(=O)N(C)C)c2c1C(c1ccc(Cl)cc1)N(c1cc(C)c(=O)n(C)c1)C2=O (centres unmarked) [Example 147]
1.86
Cc1ncccc1-n1nc2c(c1C)C(c1ccc(Cl)cc1)N(c1cc(C)c(=O)n(C)c1)C2=O (centres unmarked) [Example 81]
1.87

Please give log10 IC50 for each item listed below.
1. Cc1nn(-c2ccnn2C)c2c1[C@H](c1ccc(Cl)cc1)N(c1cc(C)c3nnc(C)n3c1)C2=O [Example 124]
2. Cc1nn(C2CC2)c2c1[C@@H](c1ccc(Cl)cc1)N(c1cc(C)c(=O)n(C)c1)C2=O [Example 49]

1: 3.24; 2: 1.53
